Quick reference for IC50 among some binders
target: T1, recombinant human αvβ6 integrin extracellular domains (human, UniProt P06756 1-992; P18564 1-709, Biotinylated on the Avitag (tag not in the letters); interchain disulfide between the coiled-coils (not in the letters).)
T1 construct: Soluble heterodimer co-expressed in Expi293 cells; also called hαvβ6
protocol.text: AlphaLISA blocking of human LAP binding
Please reply with the bare figure in nM and do not write the unit itself.

Some binders with known IC50 results, for comparison:
binder	reported
Ab-33 (antibody, V domains shown) VH: EVQLVQSGAEVKKPGSSVKVSCKASGGTFSNYAISWVRQAPGQGLEWMGGIIPIFGTANYAQKFQGRVTITADESTSTAYMELSSLRSEDTAVYYCARAPRSARGDMYYYYYGMDVWGQGTTVTVSS VL: DIQMTQSPSTLSASVGDRVTITCRASQSIGSWLAWYQQKPGKAPKLLIYKASSLESGVPSRFSGSGSGTEFTLTISSLQPDDFATYYCQQYGRYPWTFGGGTKVEIK	7.49
Ab-29 (antibody, V domains shown) VH: ELQLQESGPGLVKPSETLSLTCTVSGGSISSNSYYWGWIRQPPGKGLEWIGSIYYSGSTYYNPSLKSRVTISVDTSKNQFSLKLSSVTAADTAVYYCARVRRVAGRGDSYYYYYGMDVWGQGTTVTVSS VL: DIQMTQSPSSVSASVGDRVTITCRASQGISRWLAWYQQKPGKAPKLLIYAASSLQSGVPSRFSGSGSGTDFTLTISSLQPEDFATYYCQQAISHPWTFGGGTKVEIK	96

Alright, here's another binder for you.
According to the records, this binder Ab-32 (antibody, V domains shown) VH: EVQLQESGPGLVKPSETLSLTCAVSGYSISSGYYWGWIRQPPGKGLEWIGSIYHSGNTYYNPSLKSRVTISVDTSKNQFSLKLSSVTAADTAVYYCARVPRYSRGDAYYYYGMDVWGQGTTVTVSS VL: EIVLTQSPGTLSLSPGERATLSCRASQSVRSSYLAWYQQKPGQAPRLLIYGASSRATGIPDRFSGSGSGTDFTLTISRLEPEDFAVYYCQQAGLVFTFGGGTKVEIK displays IC50 of 16.4

All figures here come from patent US20250313635A1.
